tested on: NCI-H929; experiment: Anti-proliferative activity against human NCI-H929 cells assessed as cell growth inhibition incubated for 72 hrs by CCK-8 assay; conditions: NCI-H929, 72 h
measured-attribute: IC50 (µM)

> print(dat)
                                   compound  measured.attribute  meas.value
1  CC(=O)OC[C@H]1O[C@@H](NC(=O)c2ccccc2)C(=O)CC1Sc1ccc(Cl)cc1 (some centres undefined)                IC50        2.68

[I] O=C1C2C3C=CC(C4CC34)C2C(=O)N1c1ccc(Cc2ccncc2)cc1 (centres undefined)
[II] COc1ccc(C(=O)N[C@@H]2O[C@H](COC(C)=O)C(Sc3ccc(C)cc3)CC2=O)cc1 (some centres undefined)
[III] CC(=O)OC[C@H]1O[C@@H](NC(=O)c2ccc3c(c2)OCO3)C(=O)CC1SCc1ccco1 (some centres undefined)
Problem: Reorder the items by IC50, least to greatest. List the labels according to the requested ordering.
Result: II, III, I

====

test system: NCI-H929; experiment: Anti-proliferative activity against human NCI-H929 cells assessed as cell growth inhibition incubated for 72 hrs by CCK-8 assay; details: NCI-H929, 72 h
measured-attribute: IC50 (µM)

Solved entries (count: 2):
> print(dat)
                                   molecule  target.under.test  readout.unit  meas.value
1  CC(=O)OC[C@H]1O[C@@H](NC(=O)c2ccc3c(c2)OCO3)C(=O)CC1Sc1ccc(C)cc1 (stereo not given in full)           NCI-H929            µM        0.85
2  COc1ccc(SC2CC(=O)[C@H](NC(=O)c3ccc4c(c3)OCO4)O[C@@H]2COC(C)=O)cc1OC (stereo not given in full)           NCI-H929            µM        1.24

[A] CC(=O)OC[C@H]1O[C@@H](NC(=O)c2ccc3c(c2)OCO3)C(=O)CC1Sc1cc(C)cc(C)c1 (stereo not given in full)
[B] COc1ccc(SC2CC(=O)[C@H](NC(=O)c3ccc(OC)cc3)O[C@@H]2COC(C)=O)cc1 (stereo not given in full)
Problem: Please compare: A and B . Report which one has the smaller IC50 value. Returns: label corresponding to the selected item.
Result: B
